- assay-system: SMARCA4 (Homo sapiens)
- Sequence (P51532 whole entry): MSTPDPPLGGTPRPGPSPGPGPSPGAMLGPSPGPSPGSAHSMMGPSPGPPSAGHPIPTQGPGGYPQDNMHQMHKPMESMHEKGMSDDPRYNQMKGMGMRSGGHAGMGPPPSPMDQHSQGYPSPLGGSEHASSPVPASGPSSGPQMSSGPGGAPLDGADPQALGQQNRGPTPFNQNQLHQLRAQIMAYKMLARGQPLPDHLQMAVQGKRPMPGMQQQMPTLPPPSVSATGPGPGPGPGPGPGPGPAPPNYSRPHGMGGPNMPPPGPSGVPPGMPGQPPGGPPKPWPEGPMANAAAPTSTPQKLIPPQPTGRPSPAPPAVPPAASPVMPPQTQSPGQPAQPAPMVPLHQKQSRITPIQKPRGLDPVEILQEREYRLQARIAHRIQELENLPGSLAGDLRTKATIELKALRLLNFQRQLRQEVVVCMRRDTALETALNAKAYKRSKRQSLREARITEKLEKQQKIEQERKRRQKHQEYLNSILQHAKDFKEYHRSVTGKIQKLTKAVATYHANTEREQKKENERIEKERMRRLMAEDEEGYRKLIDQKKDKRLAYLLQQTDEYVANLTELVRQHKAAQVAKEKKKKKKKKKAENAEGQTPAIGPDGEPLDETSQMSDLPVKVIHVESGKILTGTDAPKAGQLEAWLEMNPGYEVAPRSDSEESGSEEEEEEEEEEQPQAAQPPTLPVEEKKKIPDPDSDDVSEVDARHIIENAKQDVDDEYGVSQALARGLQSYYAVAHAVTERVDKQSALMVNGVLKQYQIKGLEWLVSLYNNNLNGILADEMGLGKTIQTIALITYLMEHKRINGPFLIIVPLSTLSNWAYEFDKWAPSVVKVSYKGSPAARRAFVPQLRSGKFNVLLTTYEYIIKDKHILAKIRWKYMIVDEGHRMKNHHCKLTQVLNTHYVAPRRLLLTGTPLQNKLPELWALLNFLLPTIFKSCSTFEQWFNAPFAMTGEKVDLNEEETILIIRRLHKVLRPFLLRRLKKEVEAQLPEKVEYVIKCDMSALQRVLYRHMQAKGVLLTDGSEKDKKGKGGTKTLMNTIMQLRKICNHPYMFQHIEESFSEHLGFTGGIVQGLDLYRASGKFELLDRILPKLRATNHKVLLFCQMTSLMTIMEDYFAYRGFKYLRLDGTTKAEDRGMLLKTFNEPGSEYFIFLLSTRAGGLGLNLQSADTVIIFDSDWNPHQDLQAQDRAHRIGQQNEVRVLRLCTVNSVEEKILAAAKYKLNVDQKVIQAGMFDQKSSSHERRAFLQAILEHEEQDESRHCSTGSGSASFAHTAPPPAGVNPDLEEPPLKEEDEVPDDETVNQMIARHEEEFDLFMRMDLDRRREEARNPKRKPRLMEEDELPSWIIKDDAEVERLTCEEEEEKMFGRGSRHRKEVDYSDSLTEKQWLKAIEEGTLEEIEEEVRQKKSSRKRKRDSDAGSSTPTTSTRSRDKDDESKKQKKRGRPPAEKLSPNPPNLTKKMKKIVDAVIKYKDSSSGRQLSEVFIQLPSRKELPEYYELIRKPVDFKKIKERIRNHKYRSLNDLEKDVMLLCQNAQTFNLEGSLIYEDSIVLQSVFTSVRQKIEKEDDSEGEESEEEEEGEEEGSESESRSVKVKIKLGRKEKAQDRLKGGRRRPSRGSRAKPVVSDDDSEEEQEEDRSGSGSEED
- assay-explanation: SMARCA4 degradation in SW1573 cells (Western blot)
- Type: cell-based
- Design: endogenous in cells; host or cells: SW1573
- setup-conditions: 1 nM, 24 hours, read-out: Degradation rate of SMARCA4 in SW1573 cells (%)
measurement-label: Dmax at 0.001 µM (%)

The following molecules have reported results that may help.
Nc1nnc(-c2ccccc2O)cc1C#CC1CCC2(CC1)CC(N1CCC3(CC1)CCC1(CC3)COc3c1ccc1c3CN(C3CCC(=O)NC3=O)C1=O)C2 (stereo not shown) = 94
Nc1nnc(-c2ccccc2O)cc1C#CC1CCC2(CC1)CC(N1CCC3(CC1)Cc1ccc(NC4CCC(=O)NC4=O)cc1O3)C2 (stereo not shown) = -21
Cn1c(=O)n(C2CCC(=O)NC2=O)c2cc3c(cc21)C1(CCN(C(=O)[C@H]2CC[C@H](Cn4cc(-c5cc(-c6ccccc6O)nnc5N)cn4)CC2)CC1)CO3 (stereo partly shown) = 11
Nc1nnc(-c2ccccc2O)cc1C#CC1CCC2(CC1)CC(N1CCC3(CC1)COc1cc(NC4CCC(=O)NC4=O)ccc1C3)C2 (stereo not shown) = -14

[a] Nc1nnc(-c2ccccc2O)cc1C#CC1CCC2(CC1)CC(N1CCN3c4cc(NC5CCC(=O)NC5=O)ccc4OCC[C@H]3C1)C2 (stereo partly shown)
[b] Nc1nnc(-c2ccccc2O)cc1C#CC1CCC2(CC1)CC(N1CCC3(CCc4ccc(NC5CCC(=O)NC5=O)cc4O3)CC1)C2 (stereo not shown)
Exam item: For a and b , which recorded Dmax at 0.001 µM is lower? Output the label that corresponds to your choice.
Marked response: a
(a: -18%, b: 12%)

###

- assay-system: SMARCA4 (Homo sapiens)
- assay-explanation: SMARCA4 degradation in HeLa cells (Western blot)
- Format: cell-based
- Set-up: endogenous in cells
- setup-conditions: 1 nM, 4 hours, read-out: Degradation rate of SMARCA4 in HeLa cells (%)
measurement-label: Dmax at 0.001 µM (%)

The following compounds have reported results that may help.
Nc1nnc(-c2ccccc2O)cc1C#CC1CCC2(CC1)CC(N1CCC3(CCc4ccc(NC5CCC(=O)NC5=O)cc4O3)CC1)C2 (stereo not drawn) [SM-P-24] = -34
Nc1nnc(-c2ccccc2O)cc1C#CC1CCC2(CC1)CC(N1CC3(CCc4cc(F)c(C(=O)N[C@H]5CCC(=O)NC5=O)cc4O3)C1)C2 (stereo partly drawn) [SM-P-9] = -7
Nc1nnc(-c2ccccc2O)cc1C#CC1CCC2(CC1)CC(N1CCC3(CCc4cc(C(=O)N[C@H]5CCC(=O)NC5=O)c(F)cc4O3)CC1)C2 (stereo partly drawn) [SM-P-7] = -52
Cn1c(=O)n(C2CCC(=O)NC2=O)c2ccc3c(c21)OCC31CCN(C(=O)[C@H]2CC[C@H](Cn3cc(-c4cc(-c5ccccc5O)nnc4N)cn3)CC2)CC1 (stereo partly drawn) [SM-P-27] = 22

[a] Cn1c(=O)n(C2CCC(=O)NC2=O)c2cc3c(cc21)OC1(CC3)CCN(C2CC3(CCC(C#Cc4cc(-c5ccccc5O)nnc4N)CC3)C2)CC1 (stereo not drawn) [SM-P-1]
[b] Nc1nnc(-c2ccccc2O)cc1C#CC1CCC2(CC1)CC(N1CCC3(CCc4cc(F)c(C(=O)N[C@H]5CCC(=O)NC5=O)cc4O3)CC1)C2 (stereo partly drawn) [SM-P-12]
Exam item: Hi there! Just curious which has the higher Dmax at 0.001 µM between a and b . Output the label that corresponds to your choice.
Marked response: a
(a: 85%, b: 17%)
